Molecular target: T1, recombinant human CD40-his (Acro biosystems, Cat. No. CD0-H5228) (human, UniProt P25942 21-193)
T1 construct: Bought protein; also called human CD40-his protein; not shown: His tag
T1 sequence (P25942 21-193 limits assumed): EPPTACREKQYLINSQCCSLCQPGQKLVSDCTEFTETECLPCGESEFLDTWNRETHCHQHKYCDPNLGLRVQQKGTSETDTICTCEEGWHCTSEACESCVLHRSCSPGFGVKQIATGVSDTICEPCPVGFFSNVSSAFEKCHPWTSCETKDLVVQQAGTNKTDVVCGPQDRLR
Test: SPR (Biacore T200), antibody captured on anti-human IgG chip, CD40-his as analyte, 1:1 fit
Property name: kon (M⁻¹ s⁻¹)
Number only, in M⁻¹ s⁻¹; omit the unit.

Completed entries (count: 3):
chimeric antibody C1H1 (antibody, human IgG1, kappa, V domains shown, also called Chimeric C1H1) VH: EVKLVESGGGLVKPGASLKLSCAASGFTFSNYGISWVRQTSDKRLEWVASISSGGDNTYYPDNVKGRFTISRENAKNTLYLQMSSLKSEDTALYYCARAGEKAMDYWGQGTSVTVSS VL: DIVLTQSPVTLSVTPGDSVSLSCRASQTINNNLHWYQQKSHESPRLLIKYASQSISGIPSRFSGSGSGTDFTLSINSVETEDFGIYFCQQFSSWPLTFGAGTKLELKR; 2.51e+06
humanized antibody huC1H1-V2 (antibody, human IgG2, kappa, V domains shown, Human IgG2 / kappa) VH: EVQLVESGGGLVKPGGSLRLSCAASGFTFSNYGISWVRQAPGKGLEWVSSISSGGDNTYYPDNVKGRFTISRDNAKNSLYLQMNSLRAEDTAVYYCARAGEKAMDYWGQGTLVTVSS VL: EIVLTQSPATLSLSPGERATLSCRASQTINNNLHWYQQKPGQAPRLLIKYASQSISGIPARFSGSGSGTDFTLTISSLEPEDFAVYFCQQFSSWPLTFGGGTKVEIKR; 2.31e+06
humanized antibody huC1H1-V1 (antibody, human IgG2, kappa, V domains shown, Human IgG2 / kappa) VH: EVQLVESGGGLVKPGGSLRLSCAASGFTFSNYGISWVRQAPGKGLEWVASISSGGDNTYYPDNVKGRFTISRDNAKNSLYLQMNSLRAEDTAVYYCARAGEKAMDYWGQGTLVTVSS VL: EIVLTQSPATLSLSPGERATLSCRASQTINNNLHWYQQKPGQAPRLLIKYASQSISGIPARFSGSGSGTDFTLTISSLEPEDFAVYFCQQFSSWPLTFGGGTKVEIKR; 2.25e+06

Consider the record given below.
Problem: Fill blank: measured kon of the binder BM1 (dacetuzumab) (antibody, human IgG1, kappa, V domains shown, Benchmark antibody, prepared in-house; also called CD40-BM1; benchmark) VH: EVQLVESGGGLVQPGGSLRLSCAASGYSFTGYYIHWVRQAPGKGLEWVARVIPNAGGTSYNQKFKGRFTLSVDNSKNTAYLQMNSLRAEDTAVYYCAREGIYWWGQGTLVTVSS VL: DIQMTQSPSSLSASVGDRVTITCRSSQSLVHSNGNTFLHWYQQKPGKAPKLLIYTVSNRFSGVPSRFSGSGSGTDFTLTISSLQPEDFATYFCSQTTHVPWTFGQGTKVEIKR is ____.
Solution: 803000
